- target.desc: Mu-type opioid receptor (Homo sapiens)
- Sequence (P35372 whole entry): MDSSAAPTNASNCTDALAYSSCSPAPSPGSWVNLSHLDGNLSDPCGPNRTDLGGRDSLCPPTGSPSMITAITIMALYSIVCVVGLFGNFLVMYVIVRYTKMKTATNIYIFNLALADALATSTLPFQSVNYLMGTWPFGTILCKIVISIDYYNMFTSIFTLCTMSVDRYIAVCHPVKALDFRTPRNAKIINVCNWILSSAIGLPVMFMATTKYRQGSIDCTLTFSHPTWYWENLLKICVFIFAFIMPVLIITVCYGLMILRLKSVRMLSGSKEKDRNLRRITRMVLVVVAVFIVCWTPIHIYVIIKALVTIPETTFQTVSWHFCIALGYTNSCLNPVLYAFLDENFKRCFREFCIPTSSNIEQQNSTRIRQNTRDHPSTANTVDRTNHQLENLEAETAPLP
- experimental.details: Displacement of [3H]DAMGO from human recombinant mu opioid receptor expressed in CHO cells
- Format: cell-based
quantity.measured: Ki (nM)

smiles.input	value.observed
O=C(CCCc1ccc(Cl)cc1)N[C@@]12CCC(=O)[C@@H]3Oc4c(O)ccc5c4[C@@]31CCN(CC1CC1)[C@@H]2C5	1.34
COc1ccc2c3c1O[C@H]1C(=O)CC[C@@]4(NC(=O)C/C=C/c5ccc(Cl)cc5)[C@@H](C2)N(CC2CC2)CC[C@]314	8.19
O=C1CC[C@@]2(NCC/C=C/c3ccc(Cl)cc3)[C@H]3Cc4ccc(O)c5c4[C@@]2(CCN3CC2CC2)[C@H]1O5	1
O=C1CC[C@@]2(NCCc3ccc(Cl)cc3)[C@H]3Cc4ccc(O)c5c4[C@@]2(CCN3CC2CC2)[C@H]1O5	0.86
COc1ccc2c3c1O[C@H]1C(=O)CC[C@@]4(NCC/C=C/c5ccc(Cl)cc5)[C@@H](C2)N(CC2CC2)CC[C@]314	1.15
O=C(C/C=C/c1ccc(Cl)cc1)N[C@@]12CCC(=O)[C@@H]3Oc4c(O)ccc5c4[C@@]31CCN(CC1CC1)[C@@H]2C5	1.87
O=C1CC[C@@]2(NCCCCc3ccc(Cl)cc3)[C@H]3Cc4ccc(O)c5c4[C@@]2(CCN3CC2CC2)[C@H]1O5	0.96
O=C(Cc1ccc(Cl)cc1)N[C@@]12CCC(=O)[C@@H]3Oc4c(O)ccc5c4[C@@]31CCN(CC1CC1)[C@@H]2C5	0.73
COc1ccc2c3c1O[C@H]1C(=O)CC[C@@]4(NCCCCc5ccc(Cl)cc5)[C@@H](C2)N(CC2CC2)CC[C@]314	2.23
COc1ccc2c3c1O[C@H]1C(=O)CC[C@@]4(NCCc5ccc(Cl)cc5)[C@@H](C2)N(CC2CC2)CC[C@]314	1.33
O=C1CC[C@@]2(NC/C=C/Cc3ccc(Cl)cc3)[C@H]3Cc4ccc(O)c5c4[C@@]2(CCN3CC2CC2)[C@H]1O5	1.89
COc1ccc2c3c1O[C@H]1C(=O)CC[C@@]4(NC/C=C/Cc5ccc(Cl)cc5)[C@@H](C2)N(CC2CC2)CC[C@]314	6.76
COc1ccc2c3c1O[C@H]1C(=O)CC[C@@]4(NC(=O)/C=C/Cc5ccc(Cl)cc5)[C@@H](C2)N(CC2CC2)CC[C@]314	8.07
COc1ccc2c3c1O[C@H]1C(=O)CC[C@@]4(NC(=O)Cc5ccc(Cl)cc5)[C@@H](C2)N(CC2CC2)CC[C@]314	2.64
COc1ccc2c3c1O[C@H]1C(=O)CC[C@@]4(O)[C@@H](C2)N(CC2CC2)CC[C@]314	85.6
COc1ccc2c3c1O[C@H]1C(=O)CC[C@@]4(NC(=O)CCCc5ccc(Cl)cc5)[C@@H](C2)N(CC2CC2)CC[C@]314	3.88

* * *

- target.desc: Delta-type opioid receptor (Homo sapiens, UniProt P41143)
- Sequence (P41143 whole entry): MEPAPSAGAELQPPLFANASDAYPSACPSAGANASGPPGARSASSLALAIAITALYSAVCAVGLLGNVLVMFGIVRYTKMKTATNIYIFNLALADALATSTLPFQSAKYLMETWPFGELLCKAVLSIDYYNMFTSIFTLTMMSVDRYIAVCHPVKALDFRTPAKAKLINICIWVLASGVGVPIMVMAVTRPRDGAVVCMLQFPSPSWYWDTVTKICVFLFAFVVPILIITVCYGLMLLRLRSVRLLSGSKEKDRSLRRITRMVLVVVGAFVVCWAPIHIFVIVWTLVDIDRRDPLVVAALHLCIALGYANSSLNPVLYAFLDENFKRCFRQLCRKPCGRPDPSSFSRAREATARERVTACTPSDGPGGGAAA
- experimental.details: Displacement of [3H]Cl-DPDPE from human recombinant delta opioid receptor expressed in CHO cells
- Format: cell-based
Below is a list of entries, each paired with its recorded Ki value.

smiles.input	readout.units	Ki
O=C1CC[C@@]2(NC/C=C/Cc3ccc(Cl)cc3)[C@H]3Cc4ccc(O)c5c4[C@@]2(CCN3CC2CC2)[C@H]1O5	µM	0.00665
COc1ccc2c3c1O[C@H]1C(=O)CC[C@@]4(NC(=O)C/C=C/c5ccc(Cl)cc5)[C@@H](C2)N(CC2CC2)CC[C@]314	µM	0.104
COc1ccc2c3c1O[C@H]1C(=O)CC[C@@]4(NC(=O)Cc5ccc(Cl)cc5)[C@@H](C2)N(CC2CC2)CC[C@]314	µM	0.0519
O=C(CCCc1ccc(Cl)cc1)N[C@@]12CCC(=O)[C@@H]3Oc4c(O)ccc5c4[C@@]31CCN(CC1CC1)[C@@H]2C5	µM	0.00385
O=C1CC[C@@]2(NCCCCc3ccc(Cl)cc3)[C@H]3Cc4ccc(O)c5c4[C@@]2(CCN3CC2CC2)[C@H]1O5	µM	0.00218
COc1ccc2c3c1O[C@H]1C(=O)CC[C@@]4(O)[C@@H](C2)N(CC2CC2)CC[C@]314	µM	0.272
O=C(Cc1ccc(Cl)cc1)N[C@@]12CCC(=O)[C@@H]3Oc4c(O)ccc5c4[C@@]31CCN(CC1CC1)[C@@H]2C5	µM	0.00151
COc1ccc2c3c1O[C@H]1C(=O)CC[C@@]4(NCCc5ccc(Cl)cc5)[C@@H](C2)N(CC2CC2)CC[C@]314	µM	0.0338
COc1ccc2c3c1O[C@H]1C(=O)CC[C@@]4(NCC/C=C/c5ccc(Cl)cc5)[C@@H](C2)N(CC2CC2)CC[C@]314	µM	0.0248
COc1ccc2c3c1O[C@H]1C(=O)CC[C@@]4(NC(=O)CCCc5ccc(Cl)cc5)[C@@H](C2)N(CC2CC2)CC[C@]314	µM	0.0894
O=C1CC[C@@]2(NCCc3ccc(Cl)cc3)[C@H]3Cc4ccc(O)c5c4[C@@]2(CCN3CC2CC2)[C@H]1O5	µM	0.00191
O=C1CC[C@@]2(NCC/C=C/c3ccc(Cl)cc3)[C@H]3Cc4ccc(O)c5c4[C@@]2(CCN3CC2CC2)[C@H]1O5	µM	0.0021
